# TEST_DETAILS: Hepatic, renal and hematological function serum markers in treated mice
# Type: in vivo, Balb/c
# TEST_CONTEXT: 75 mg/Kg; Balb/c
METRIC_NAME: platelet count

Lookup result for O=C(Oc1ccc(-c2ccc(OC(=O)c3cc(O)c(O)c(O)c3)cc2)cc1)c1cc(O)c(O)c(O)c1 ; measured platelet count: 849 10^3/µL

====

# TEST_DETAILS: Hepatic, renal and hematological function serum markers in treated mice
# Type: in vivo, Balb/c
# TEST_CONTEXT: 50 mg/Kg; Balb/c
METRIC_NAME: platelet count

platelet count measured on O=C(Oc1ccc(-c2ccc(OC(=O)c3cc(O)c(O)c(O)c3)cc2)cc1)c1cc(O)c(O)c(O)c1 = 826 10^3/µL

====

# TEST_DETAILS: Serum stability study, mouse serum
# Format: in vitro ADME
# TEST_CONTEXT: mouse serum (75% final serum content); mouse (Balb/c) serum, 37°C, 75% serum, 0.5 mM compound; read-out: half-life (t1/2) (converted)
# key: entry, value: half-life at 0.5 mM
The reply should be a number in min, with the unit left off.

O=C(Oc1cccc2c(OC(=O)c3cc(O)c(O)c(O)c3)cccc12)c1cc(O)c(O)c(O)c1 | 18

Now for another entry.
response.value for O=C(Oc1ccc(-c2ccc(OC(=O)c3cc(O)c(O)c(O)c3)cc2)cc1)c1cc(O)c(O)c(O)c1 (field: half-life at 0.5 mM) = 24
